- MEASURED TARGET: T1, GST (Pierce) (UniProt P08515 1-218 = GST, limits assumed)
- T1 construct: control for the GST part of the fusion protein; also called GST protein; Glutathione-S-transferase
- METHOD SUMMARY: ELISA, coated GST;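 also: ELISA on plates coated with GST alone at 1-10 µg/ml, antibodies applied at 100-1000x dilution, bound antibody detected by peroxidase substrate colour after acid stop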
PARAMETER MEASURED: binding result

BINDER | RESULT
anti-TMEM106B antibody TM-20 (antibody, V domains shown) VH: EVQLQQSGAELVRPGASVKLSCTTSGFNIKDYYMHWVKQRTEQGLEWIGRIDPEDGETKYAPEFQGKATITSDTSSNTAFLQLSSLTSEDTAVYYCASSQPFTYWGQGTLVTVSA VL: QIVLTQSPAIMSASPGEKLTMTCSASSSLNYMYWYQQKPGSSPRLLIYDTSNLASGVPVRFRGSGSGTSYSLTISRMEAEDGATYYCQQWTSFPPTFGAGTKLELK | no binding
anti-TMEM106B antibody TM-22 (antibody, V domains shown) VH: QVQLQQSGPELVKPGASVKISCKASGYRFTSYYIHWVKQRPGQGLEWIGWIYPGNGITNYNEKFKGKATLTADTSSSTAYMQLSSLTSEDSAVYYCASPYYGIRNCYFDVWGTGTTVTVSS VL: DVLMTQTPLSLPVSLGDHASISCRSGQSIVHSNGNTYLEWYLQKPGQSPKLLIYKVSNRFSGVPDRFSGSGSGTDFTLKISRVEAEDLGIYYCFQGSHVPWTFGGGTKLEIK | no binding
anti-TMEM106B antibody TM-2 (antibody, V domains shown) VH: HIQLVQSGPELKKPGETVKISCKASGYTFTEYPMHWVKQAPGKGFRWMGMIYTNTGEPTYAAEFKGRFAFSLETSASTGYLQINNLKNEDSATYFCVTAGYWGQGTLVTVSA VL: QIVLTQSPAILSASPGEKVTMTCRASSSVSYIHWFLQKPGSSPKPWIYATSNLASGVPFRFIGSGSGTSYSLTISGVEAEDSATYYCQQWSSNPSTFGAGTKLELK | no binding
